- assay target: T1, GFP-9S library array, motif 4 ND N98C;D124P (synthetic construct, N98C;D124P)
- T1 chain: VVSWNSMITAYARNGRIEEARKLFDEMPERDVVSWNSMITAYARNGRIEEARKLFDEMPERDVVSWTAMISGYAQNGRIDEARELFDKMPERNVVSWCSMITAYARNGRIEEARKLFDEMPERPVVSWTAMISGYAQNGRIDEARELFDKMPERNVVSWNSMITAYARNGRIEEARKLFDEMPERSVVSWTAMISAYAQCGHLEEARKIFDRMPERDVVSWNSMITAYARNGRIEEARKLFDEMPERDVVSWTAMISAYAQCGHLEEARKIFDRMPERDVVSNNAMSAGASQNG
- assay info: high-throughput RNA pulldown from lysate on Ni-NTA beads; HRP: 50 mM Tris pH 8, 150 mM NaCl, 1 mM beta-mercaptoethanol, 50 ug/ml BSA, 3 ug/ml yeast RNA, 0.5% heparin; ITC and FP: Tris pH 8, 200 mM KCl, 5% glycerol; MST: 50 mM Tris pH 8, 200 mM NaCl, 1 mM DTT, BSA, heparin, 0.05% Tween 20
- settings: tags: N-terminal His-eGFP; label: 5' IRDye 800CW
Measured Kd of individual entries
experimental readout: Kd (nM)

| binder | reported measurement |
| --- | --- |
| AUUAUACGUGA (ssRNA) [IR-rpoA-U] | 351 |
| AUUAAACGUGA (ssRNA) [IR-rpoA-A] | 263 |
